System: BALB/C mice
Assay: Maximum tolerated dose (MTD) / acute toxicity by single intravenous injection
Details: single intravenous injection, 200 mg/kg, 10 BALB/C mice per group
Property Name: Number of dead animal
Enter a number only.

| Molecule | Result Value |
| --- | --- |
| COCCOCC(=O)N[C@H](C)C(=O)N[C@H](C)C(=O)N[C@H](CC(N)=O)C(=O)Nc1ccc(COC(=O)OC(C(=O)OC2C[C@@]3(O)[C@@H](OC(=O)c4ccccc4)[C@H]4[C@](C)(C(=O)[C@H](O)C(=C2C)C3(C)C)[C@@H](O)CC2OC[C@]24OC(C)=O)[C@@H](NC(=O)OC(C)(C)C)c2ccccc2)cc1 (stereo partly shown) [Compound D1] | 1 |
| COCCOCC(=O)NCCCC[C@H](NC(=O)COCCOC)C(=O)N[C@H](C)C(=O)N[C@H](C)C(=O)N[C@H](CC(N)=O)C(=O)Nc1ccc(COC(=O)OC(C(=O)OC2C[C@@]3(O)[C@@H](OC(=O)c4ccccc4)[C@H]4[C@](C)(C(=O)[C@H](OC(C)=O)C(=C2C)C3(C)C)[C@@H](O)CC2OC[C@]24OC(C)=O)[C@@H](NC(=O)c2ccccc2)c2ccccc2)cc1 (stereo partly shown) | 0 |
| COCCOCCOCCOCCOCCOCCOCCOCCOCCOCCOCCOCC(=O)NCCCC[C@H](NC(=O)COCCOCCOCCOCCOCCOCCOCCOCCOCCOCCOCCOC)C(=O)N[C@H](C)C(=O)N[C@H](C)C(=O)N[C@H](CC(N)=O)C(=O)Nc1ccc(COC(=O)OC(C(=O)OC2C[C@@]3(O)[C@@H](OC(=O)c4ccccc4)[C@H]4[C@](C)(C(=O)[C@H](OC(C)=O)C(=C2C)C3(C)C)[C@@H](O)CC2OC[C@]24OC(C)=O)[C@@H](NC(=O)c2ccccc2)c2ccccc2)cc1 (stereo partly shown) | 0 |

Please examine the following record next.
Need Number of dead animal of COCCOCCOCCOCCOCCOCC(=O)NCCCC[C@H](NC(=O)COCCOCCOCCOCCOCCOC)C(=O)N[C@H](C)C(=O)N[C@H](C)C(=O)N[C@H](CC(N)=O)C(=O)Nc1ccc(COC(=O)OC(C(=O)OC2C[C@@]3(O)[C@@H](OC(=O)c4ccccc4)[C@H]4[C@](C)(C(=O)[C@H](OC(C)=O)C(=C2C)C3(C)C)[C@@H](O)CC2OC[C@]24OC(C)=O)[C@@H](NC(=O)c2ccccc2)c2ccccc2)cc1 (stereo partly shown) , thanks.
0

* * *

System: BALB/C mice
Test: Maximum tolerated dose (MTD) / acute toxicity by single intravenous injection
Details: BALB/C mice, intravenous injection, one time
Property Name: MTD (maximum tolerated dose)

| Compound | Result Value |
| --- | --- |
| COCCOCCOCCOCCOCCOCC(=O)NCCCC[C@H](NC(=O)COCCOCCOCCOCCOCCOC)C(=O)N[C@H](C)C(=O)N[C@H](C)C(=O)N[C@H](CC(N)=O)C(=O)Nc1ccc(COC(=O)OC(C(=O)OC2C[C@@]3(O)[C@@H](OC(=O)c4ccccc4)[C@H]4[C@](C)(C(=O)[C@H](OC(C)=O)C(=C2C)C3(C)C)[C@@H](O)CC2OC[C@]24OC(C)=O)[C@@H](NC(=O)c2ccccc2)c2ccccc2)cc1 (stereo partly drawn) | about 90 mg/kg |
| COCCOCCOCCOCCOCCOCC(=O)N[C@H](C)C(=O)N[C@H](C)C(=O)N[C@H](CC(N)=O)C(=O)Nc1ccc(COC(=O)OC(C(=O)OC2C[C@@]3(O)[C@@H](OC(=O)c4ccccc4)[C@H]4[C@](C)(C(=O)[C@H](OC(C)=O)C(=C2C)C3(C)C)[C@@H](O)CC2OC[C@]24OC(C)=O)[C@@H](NC(=O)c2ccccc2)c2ccccc2)cc1 (stereo partly drawn) | about 90 mg/kg |

* * *

Target: asparagine endopeptidase (Homo sapiens)
Sequence (Q99538 26-323 limits assumed): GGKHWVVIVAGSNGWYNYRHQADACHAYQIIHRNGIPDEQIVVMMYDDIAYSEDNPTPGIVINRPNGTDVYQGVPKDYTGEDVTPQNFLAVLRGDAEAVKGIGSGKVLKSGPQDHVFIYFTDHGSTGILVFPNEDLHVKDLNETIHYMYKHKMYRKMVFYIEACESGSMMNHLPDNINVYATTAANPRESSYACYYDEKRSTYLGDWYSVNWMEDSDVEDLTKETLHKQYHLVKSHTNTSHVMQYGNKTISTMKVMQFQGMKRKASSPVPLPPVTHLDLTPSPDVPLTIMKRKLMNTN
Where a SMILES comes first, the peptide text is derived from it. The star is where a group is joined. Doxorubicin(3'-N) = COc1cccc2c1C(=O)c1c(O)c3c(c(O)c1C2=O)C[C@@](O)(C(=O)CO)C[C@@H]3O[C@H]1C[C@H](N*)[C@H](O)[C@H](C)O1; MeOCH2CH2OCH2CO = COCCOCC(=O)*
Property Name: Cleaving efficiency (%)
// units = %; emit number, no label

I am curious: what Cleaving efficiency value has been reported for COCCOCC(=O)N[C@@H](C)C(=O)N[C@@H](C)C(=O)N[C@@H](CC(N)=O)C(=O)N[C@@H](CC(C)C)C(=O)N[C@H]1C[C@H](O[C@H]2C[C@](O)(C(=O)CO)Cc3c(O)c4c(c(O)c32)C(=O)c2c(OC)cccc2C4=O)O[C@@H](C)[C@H]1O [PEG-AANL-DOX] (MeOCH2CH2OCH2CO-AANL-{Doxorubicin(3'-N)}) ?
66.5

* * *

The following molecules are listed with their measured MTD at 17 days values.
Assay: Maximum tolerated dose (MTD) / acute toxicity by single intravenous injection
Conditions: female, BALB/C, mouse, in vivo, iv

| Molecule | Result Value |
| --- | --- |
| COCCOCCOCCOCCOCCOCC(=O)N[C@H](C)C(=O)N[C@H](C)C(=O)N[C@H](CC(N)=O)C(=O)Nc1ccc(COC(=O)N2[C@H]3[C@@H]2CN2C4=C(C(=O)C(N)=C(C)C4=O)[C@H](COC(N)=O)[C@]32OC)cc1 [Compound E2] | ~90 mg/kg |

Now consider the entry below.
I am curious: what MTD at 17 days value has been reported for COCCOCC(=O)N[C@H](C)C(=O)N[C@H](C)C(=O)N[C@H](CC(N)=O)C(=O)Nc1ccc(COC(=O)N2[C@@H]3CN4C5=C(C(=O)C(N)=C(C)C5=O)[C@H](COC(N)=O)[C@]4(OC)[C@@H]32)cc1 [Compound E1] ?
~90 mg/kg

* * *

System: BALB/C mice
Test: Maximum tolerated dose (MTD) / acute toxicity by single intravenous injection
Details: single intravenous injection, 175 mg/kg, 10 BALB/C mice per group
Property Name: Mortality rate (%)
Numeric answer only, unit % assumed.

Would you mind telling me what Mortality rate (%) value was observed for COCCOCCOCCOCCOCCOCC(=O)NCCCC[C@H](NC(=O)COCCOCCOCCOCCOCCOC)C(=O)N[C@H](C)C(=O)N[C@H](C)C(=O)N[C@H](CC(N)=O)C(=O)Nc1ccc(COC(=O)OC(C(=O)OC2C[C@@]3(O)[C@@H](OC(=O)c4ccccc4)[C@H]4[C@](C)(C(=O)[C@H](OC(C)=O)C(=C2C)C3(C)C)[C@@H](O)CC2OC[C@]24OC(C)=O)[C@@H](NC(=O)c2ccccc2)c2ccccc2)cc1 (stereo partly shown) [Compound A2] ?
0

* * *

Test system: Human breast cancer MDA-MB231 cells
Format: in vivo, nude mice
Details: MDA-MB231, nude mice, IV 13.2 μmol/kg once weekly for four weeks, Day 10
Experimental: 1) Human breast cancer MDA-MB231 cells were purchased from American type culture collection (ATCC) and identified according the specification provided by ATCC. Cells were cultivated in […] (DMEM culture medium) containing 10% fetal bovine serum at 37° C. and 5% CO2. The cells were passaged for every three days and cells within the 15th passage were used. 2) Production of tumor. 5×10^6 MDA-MB231 cells were subcutaneously injected to the back of the nude mice. […]
Measured Size of tumor (mm^3) Day 10 values are reported for all entries that follow.
Give the quantity in mm^3, number only.

Sample records with Size of tumor (mm^3) Day 10:
| Compound | Experimental Target | Property Name | Result Value |
| --- | --- | --- | --- |
| CCCCCOC(=O)Nc1nc(=O)n([C@@H]2O[C@H](C)[C@@H](O)[C@H]2O)cc1F [capecitabine] | Human breast cancer MDA-MB231 cells | Size of tumor (mm^3) Day 10 | 225.53 |
| COCCOCC(=O)N[C@H](C(=O)N[C@@H](C)C(=O)N[C@@H](CC(N)=O)C(=O)Nc1ccc(COC(=O)N[C@H]2C[C@H](O[C@H]3C[C@](O)(C(C)=O)Cc4c(O)c5c(c(O)c43)C(=O)c3c(OC)cccc3C5=O)O[C@@H](C)[C@H]2O)cc1)C(C)O (stereo partly drawn) [Compound S4] | Human breast cancer MDA-MB231 cells | Size of tumor (mm^3) Day 10 | 95.56 |
| CC[C@@]1(O)C(=O)OCc2c1cc1n(c2=O)Cc2cc3ccccc3nc2-1 [camptothecin] | Human breast cancer MDA-MB231 cells | Size of tumor (mm^3) Day 10 | 258.45 |
| COc1cccc2c1C(=O)c1c(O)c3c(c(O)c1C2=O)C[C@@](O)(C(C)=O)C[C@@H]3O[C@H]1C[C@H](N)[C@H](O)[C@H](C)O1 [daunorubicin] | Human breast cancer MDA-MB231 cells | Size of tumor (mm^3) Day 10 | 174.78 |
| COc1cccc2c1C(=O)c1c(O)c3c(c(O)c1C2=O)C[C@@](O)(C(C)=O)C[C@@H]3O[C@H]1C[C@H](NC(=O)OCc2ccc(NC(=O)[C@H](CC(N)=O)NC(=O)[C@H](C)NC(=O)[C@H](C)NC(=O)CCCCCN3C(=O)C=CC3=O)cc2)[C@H](O)[C@H](C)O1 [Compound S5] | Human breast cancer MDA-MB231 cells | Size of tumor (mm^3) Day 10 | 63.67 |

Return reported Size of tumor (mm^3) Day 10; argument: CCCCCOC(=O)Nc1nc(=O)n([C@@H]2O[C@H](C)[C@@H](OC(=O)OCc3ccc(NC(=O)[C@H](CC(N)=O)NC(=O)[C@H](C)NC(=O)[C@H](C)NC(=O)CCCCCCC(=O)NO)cc3)[C@H]2O)cc1F [Compound S3]
85.67
